- measured.on: human FABP3 (Homo sapiens)
- Construct: His-tag (N); TEV cleavage site (N); made in house; host or cells: E. coli BL21(DE3)
- Sequence (P05413 whole entry): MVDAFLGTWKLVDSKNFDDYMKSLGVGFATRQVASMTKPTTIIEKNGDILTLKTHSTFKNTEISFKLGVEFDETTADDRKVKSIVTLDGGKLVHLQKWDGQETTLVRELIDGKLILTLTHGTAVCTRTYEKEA
- test.method.notes: ITC assay of ligand binding to apo-FABP3
- setup.conditions: KPi pH 7.6, 25 °C, with 0.1% TX
Is ΔH at least -10 kcal/mol? Then 1.0. If not, 0.0.

compound: CCCCCCCCCCCCCCCCCC(=O)O [C18:0, stearate]
class.label: 1.0
--
compound: CCCCCCCC(=O)O [C8:0, caprylate]
class.label: 0.0
--
compound: CCCCCCCCCCCCCC(=O)O [C14:0, myristate]
class.label: 0.0
--
compound: CCCCCCCCCCCCCCCC(=O)O [C16:0, palmitate]
class.label: 1.0
--
compound: CC/C=C\C/C=C\C/C=C\C/C=C\C/C=C\CCCC(=O)O
class.label: 0.0
--
compound: CCCCCCCCCCCC(=O)O [C12:0, laurate]
class.label: 0.0
--
compound: CCCCCCCC/C=C/CCCCCCCC(=O)O [C18:1(n-9)t, elaidate]
class.label: 1.0
